System: K4 kissing-loop RNA reporter;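 further: bound reporter read as fluorescence of individual clusters on recovered sequencing chips by microscopy, with normalized cluster intensities fitted with a binding model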
Assay: apparent KD of K4 kissing-loop reporter; higher = weaker reporter binding
Conditions: Eterna round: R107; input ligand: tryptophan 2.4 mM
Reported apparent KD of K4 kissing-loop reporter maps to class as: label 0 (below 100 nM), label 1 (100 nM to below 300 nM), label 2 (300 nM or more)

Could you tell me which band CUUCGUAAGGGCCCAGUGAUGUUGGGCACUCGAGGACCGGUACGGCCGCCACUCGCUCCCUAAGUCGCGCGCGUGGGCCACCGCC [Rezariatra] belongs to?
label 1

Note: place this sequence into its band. Item: UUGUAAAAGUCGGCCGCCACUCCGGGCCCUAUAAAUGGGCGCAGUGAUGUUGCGGCUAGGCCUCUGAGGACCGGGACUUUAUAGC [Xeismaarbe]
label 1

State the class of the sequence shown: UAAGAAUAAGUAGCAGUGAUGUUGCUACUGCGAGGACCGGUACGGCCGCCACUCGAGUCCUCGAAGCAUCACUGAACGAGGAAUA [whbob_SS_Tryp_A_m12]
label 2

Would you mind sorting GCCUGGGCACGAAGGAGCGCCGUGACAGGUUACUGCAUUGGGCAGUGAUGUUGCUCAAUCUGGCAGGUAGGUCGCGUGCCCAGGC into the appropriate category?
label 1

Tag the class for GGUAGCAUGGCGGCCGCCACUGUCUAGUGAUGUUAGACCCGACGUGGAUUCAAGACAGUCGGAAACAGGACCGGGCCAUGCUACC
label 1

Input AAUAUCUAGUAUAUAUUUUAUAAAACAGAUACCAGUGAUUAUAUACACCCUUGGCAGCUGGACGAGUGAUGUUCGUAUAUAUUAA [JR_SSTheophyA_Sub008] ; output its category
label 0

Class? Entry: GGCAGUGAUGUUGCCUAAGCAACGCAUGCGGAGGAUAUUCGUUCGGGAAGAAGGCCGCAGCGUUCUCUCGAGUGAUGUUCGAGUA [Same State FMN A GF 21]
label 1

Sort AAUUCAGUGAUGUUGGAAGGCAAGCGGGAUACCAGCGGAGAAUAACGCCCUUGGCAGCCCAUAUAUCCCAAAUAGAUAAUAGUUC [Same State - Theophylline A (Freestyle 4)] into one of the categories.
label 2

Input AGGCACGAGCAAGGAUAUCGAGUAGAGUGAUGUUCUGCCUGGGUUGGCGCGUAAGGGCCUUCCCAGCGAGAAGGUGCUCGUGCCU [#2 Same State - FMN A Attempt #12 (HarryS)] ; output its category
label 2

Would you mind sorting GCUCAGGAGUGAUGUUCCAAGUGAUGUUAACGAGGACCGGUACGGCCGCCACUCGAUACGGCCGGACCGUAGGAUAAACUAGAGC [Same State - Tryptophan A (Freestyle 9)] into the appropriate category?
label 1

Classify this sequence: GCCGUAGAUUGAAGGAGCGGGAUAGAGAAAGUGAUGUUUUCUCUUUGACGGCGUCCUCGAUCCCAGGUAGGUCGCAAUCUACGGC
label 0

Which class holds UUUUGGUACUGAGGAUAUUCGAAGAAAUAUAGUGAUGUUAUAUAAGGAGGAGGAGGGAGGGAGGAAGGAGAAGGCAGAAGAGGAG [ExFMNB.G] ?
label 1
